Would you kindly list composite z-score for each of these compounds?
Assay: small-molecule binders of probe aLefty1, primary screen, biochemical, small-molecule microarray, 635/667 nm fluorescence (AID 1153);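 further: score merges spot fluorescence with signal-to-noise ratio from the scanned slide images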
Conditions: higher = more signal
One number for each entry.

CCCNC(=O)[C@@H]1c2ccccc2C(=O)N(Cc2cc(F)cc(C(F)(F)F)c2)[C@H]1c1ccc(CO)cc1 0.251

Required: composite z-score, one value per compound below.
1. COCCOC(=O)N1C(=O)[C@@]2(c3cc(C#CC4=CCCCC4)ccc31)[C@H](C(=O)NC[C@H](O)c1ccccc1)[C@H]1C(=O)O[C@H](c3ccccc3)[C@H](c3ccccc3)N1[C@@H]2c1ccccc1OCCO
2. CC(C)(C)OC(=O)CC[C@]1(C(=O)N2CCCCC2)N=C(c2ccc(OCCCO)cc2)O[C@H]1c1ccccc1

Result:
1. 0.705
2. -0.294

----------
Assay: fission yeast growth modulation, primary screen, strain 972, OD600, 24 h, no modulator (AID 1090);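 further: basal condition with compound alone and no growth modifier present; test concentration not given here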
Conditions: S. pombe 972 growth, higher = more signal, called active from +8 up or from −8 down
assay-readout: z-score
One number for each entry.

Some solved cases for reference:
CC(C)(C)OC(=O)CC[C@]1(C(=O)NCCN2CCOCC2)N=C(c2ccc(OCCCO)cc2)O[C@H]1c1ccccc1CN=[N+]=[N-] -0.981
O=C1O[C@@H](c2ccccc2)[C@@H](c2ccccc2)N2[C@@H](c3ccc(OCCO)cc3)[C@]3(C(=O)Nc4ccc(C#CCCO)cc43)[C@@H](C(=O)N3CCN(c4ncccn4)CC3)[C@H]12 1.04
CCCNC(=O)[C@@H]1c2ccccc2C(=O)N(C2CCCCC2)[C@H]1c1ccc(CO)cc1 1.15

Request: Provide one value: measured z-score of "CCN1C(C)=C(C(=O)OC)[C@@H](c2ccccc2)N2C(=O)[C@@]3(C(=O)OC)O[C@@]12[C@@H]1C(=O)CCC[C@@H]13"
Result: -1.06

----------
Experiment: S. cerevisiae growth modulation with rapamycin, primary screen, strain BY4716, OD600, 96 h (AID 1091); further: test concentration not given here
Conditions: higher = more signal, called active from +8 up or from −8 down
Would you kindly list z-score for each of these compounds?
Give bare numbers.

CC(C)[Si]1(C(C)C)O[C@@H](c2ccccc2)c2cc(C3CC3)nc(-c3ccc(Oc4ccccc4)cc3)c21 1.21
CO[C@H]1O[C@H](CO)[C@@H](OC(=O)CCc2ccccc2)[C@@H]2OC(=O)[C@H](Cc3cccc(Br)c3)C/C=C/C[C@@H](Cc3cccc(Br)c3)C(=O)O[C@@H]12 3.62
CCOC(=O)C[C@H]1[C@H](OC(=O)Cc2ccc3c(c2)OCO3)[C@@H](NC(=O)c2ccc3ccccc3c2)c2cc(OCCCO)ccc2N1C(=O)Cc1ccc(OC)cc1 0.227

We next turn to a different compound, shown below.
Request: Provide one value: measured z-score of "CC(=O)NCCCC[C@@H]1NC(=O)[C@H]2C[C@@H](C(=O)NCCCCCCN(C)C)[C@@H](c3ccc(O)cc3)N2C1=O"
Result: 0.613

----------
Assay: osmotic lysis modulators in infected erythrocytes, primary screen, PSAC antagonist project, cell-based, P. falciparum Indochina, OD700, 3 h (AID 1156)
Details: higher = more signal, called active from +8 up or from −8 down
assay-readout: z-score
Give bare numbers.

Some solved cases for reference:
Cc1ccc([C@@H]2CC=C(C(=O)O)[C@H](c3ccccc3)N2S(=O)(=O)c2ccc(C)cc2)cc1 0.692
CO[C@H]1COC(=O)[C@H](CCSC)NC(=O)CC=C[C@@H](C)COC(=O)[C@@H](OCc2ccccc2)C=C[C@@H]1C 0.04
NC(=O)[C@H]1[C@@H]2C(=O)O[C@@H](c3ccccc3)[C@@H](c3ccccc3)N2[C@@H](c2ccc(O)cc2)[C@]12C(=O)Nc1ccc(C#CCCO)cc12 0.696

Request: Provide one value: measured z-score of "CC(=O)Nc1ccc([C@H]2[C@H](C)CC[C@H]3C(=O)N4[C@@H](CC[C@@H](C)[C@@H]4c4ccc(NC(C)=O)cc4)C(=O)N32)cc1"
Result: 0.699

----------
Experiment: PSAC antagonists in infected red cells, primary screen, cell-based, P. falciparum Indochina, OD700, 2 h (AID 1155);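 further: lysis reports solute entry through the parasite surface anion channel PSAC; channel blockers reduce lysis of infected cells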
Conditions: P. falciparum Indochina infected erythrocytes, osmotic lysis OD700; higher = more signal, called active from +8 up or from −8 down
assay-readout: z-score
One number for each entry.

Some solved cases for reference:
compound	z-score
CO[C@H]1COC(=O)[C@H](CCSC)NC(=O)CC=C[C@@H](C)COC(=O)[C@@H](OCc2ccccc2)C=C[C@@H]1C	0.238
[N-]=[N+]=NCc1ccccc1[C@H]1OC(c2ccc(OCCCO)cc2)=N[C@@]1(Cc1ccccc1N=[N+]=[N-])C(=O)NCc1ccccc1	20.5
C=CCC(OC(C)=O)[C@@H]1[C@@H](N(Cc2cccc3ccccc23)C(=O)Cc2ccc(F)cc2)c2cc(OCCCO)ccc2N1C(=O)Cc1ccc2ccccc2c1 (stereo partly specified)	0.605
CCC#CCN(Cc1ccccc1Br)[C@H](/C=C/c1ccccc1)[C@@H](O)Cc1ccccc1	1.15
COCCOC(=O)N1C(=O)[C@@]2(c3cc(C#CCC(C(=O)OC)C(=O)OC)ccc31)[C@H](C(=O)N1CCN(c3ncccn3)CC1)[C@H]1C(=O)O[C@H](c3ccccc3)[C@H](c3ccccc3)N1[C@@H]2c1ccc(O)cc1	-0.0642

Required: z-score, one value per compound below.
1. C=C(/C(=C/C[C@@H](OC(=O)c1ccncc1)c1ccc(CO)o1)c1cnc2ccccc2c1)C(C)C
2. O=C(NCc1ccccc1)[C@@]1(Cc2ccccc2)COC(c2ccc(OCCCO)cc2)=N1
3. COC(=O)Cn1c(C(=O)N2CCCC2)cc2c1C[C@H]1CN(C(=O)c3ccccc3)[C@@](Cc3ccc(OC)cc3)(C(=O)OC)[C@@H]21

Result:
1. 0.231
2. 21.2
3. 2.13

----------
Would you kindly list composite z-score for each of these compounds?
Target: E3 ubiquitin-protein ligase XIAP (Homo sapiens) (UniProt P98170)
Sequence (P98170 whole entry, looked up): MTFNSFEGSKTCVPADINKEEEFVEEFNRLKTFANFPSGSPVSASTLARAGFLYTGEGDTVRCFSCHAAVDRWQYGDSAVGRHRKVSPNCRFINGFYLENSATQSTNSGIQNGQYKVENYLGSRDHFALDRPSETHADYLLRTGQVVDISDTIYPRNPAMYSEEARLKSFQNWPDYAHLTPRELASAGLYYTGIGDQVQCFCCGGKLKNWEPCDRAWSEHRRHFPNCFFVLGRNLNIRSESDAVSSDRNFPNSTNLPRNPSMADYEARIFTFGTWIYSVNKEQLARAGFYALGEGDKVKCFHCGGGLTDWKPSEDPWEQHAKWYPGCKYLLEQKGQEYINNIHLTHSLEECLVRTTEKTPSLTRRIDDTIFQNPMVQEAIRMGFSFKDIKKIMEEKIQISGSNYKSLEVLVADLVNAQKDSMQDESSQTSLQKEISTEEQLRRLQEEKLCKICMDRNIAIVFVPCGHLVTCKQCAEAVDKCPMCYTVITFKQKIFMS
Test: XIAP binders, primary screen, biophysical, small-molecule microarray, fluorescence 635 nm (AID 1181);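 further: score merges 667 nm emission and signal to noise over triplicate slides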
Conditions: small-molecule microarray binding, higher = more signal
Answers are plain numbers.

Some solved cases for reference:
compound	composite z-score
COCCCNC(=O)[C@@]1(c2ccc([N+](=O)[O-])cc2)CC(=O)N(C2CCCCC2)[C@@H]1c1ccc(CO)cc1	0.147
C#CCNC(/C=C/c1ccccc1)CO (centres undefined)	0.0338
COC(=O)C[C@H]1O[C@]2(C(=O)N(C)c3ccccc32)[C@@H](C)[C@@H]1[Si](C)(C)c1ccc(OC)cc1	0.0942

Request: Report its composite z-score with E3 ubiquitin-protein ligase XIAP (Homo sapiens) (UniProt P98170) as the test system: "O=C1O[C@H](c2ccccc2)[C@H](c2ccccc2)N2[C@H]1[C@@H](C(=O)NC[C@H](O)c1ccccc1)[C@]1(C(=O)Nc3ccc(C#CC4(O)CCCCCC4)cc31)[C@H]2c1ccc(OCCO)cc1"
Result: -0.168

----------
Would you kindly list z-score for each of these molecules?
Molecular target: NADPH oxidase 2 (Homo sapiens)
Test: NOX2-dependent H2O2 signal modulators, primary screen, NOX inhibitor project, cell-based, HEK293-NOX2, PMA-stimulated, Amplex Red fluorescence (AID 1159); further: test concentration not given here
Details: 45 min, higher = more signal, called active from +8 up or from −8 down
Numbers only.

Some solved cases for reference:
molecule	z-score
Cc1ccc(S[C@]2(C(=O)O)CC(=O)N(Cc3ccccc3)[C@@H]2c2ccc(CO)cc2)cc1	-0.198
C=CCC(OC(C)=O)[C@@H]1[C@@H](N(Cc2ccc(-c3cccc(C(F)(F)F)c3)o2)C(=O)Cc2ccc(F)cc2)c2cc(OCCCO)ccc2N1C(=O)c1ccc(-c2ccccc2)cc1 (stereo partly drawn)	-0.0336

We next turn to a different molecule, shown below.
Request: Provide one value: measured z-score of "O=C(NCc1ccccc1)[C@@]1(Cc2ccccc2)COC(c2ccc(OCCCO)cc2)=N1"
Result: -3.55

----------
Experiment: CREB reporter modulators without forskolin, primary screen, cell-based, PC12, CRE-LacZ reporter, unstimulated (AID 1145)
Details: no forskolin, luminescence, 4.5 h, called active from +8 up or from −8 down
Activity calls are given as the source filed them.
Your response should consist of one outcome taken from active, inactive

compound	assigned-category
CC(=O)NCCCC[C@@H]1NC(=O)[C@@H]2C[C@H](C(=O)NCCCCCCN(C)C)[C@H](c3ccc(O)cc3)N2C1=O	inactive
O=C1O[C@@H](c2ccccc2)[C@@H](c2ccccc2)N2[C@@H](c3ccccc3OCCO)[C@]3(C(=O)Nc4ccc(C#CC5=CCCCC5)cc43)[C@@H](C(=O)O)[C@H]12	inactive
CO[C@H]1COC(=O)[C@H](Cc2ccccc2)NC(=O)CC=C[C@@H](C)[C@H](OC)COC(=O)CC=C[C@@H]1C	inactive
COC(=O)Cn1c(C(=O)N2CCCC2)cc2c1C[C@H]1CN(C(=O)c3ccccc3)[C@@](Cc3ccc(OC)cc3)(C(=O)OC)[C@@H]21	inactive
O=C(NCC(F)(F)F)[C@@H]1c2ccccc2C(=O)N(Cc2ccccc2Cl)[C@H]1c1ccc(CO)cc1	inactive
COCCCNC(=O)[C@@]1(c2ccc([N+](=O)[O-])cc2)CC(=O)N(C2CCCCC2)[C@@H]1c1ccc(CO)cc1	inactive
C[C@H]1COC(=O)[C@@H]2CCCN2C(=O)[C@@H](C)COC(=O)[C@@H]2CCCN2C1=O	inactive
CCCCO[C@H]1C[C@H]2C(Br)=C[C@@]1(CO)C(=O)[C@]21CO1	inactive

Request: Any idea what this test logged for COC(=O)c1ccc(C#CC(NP(=O)(c2ccccc2)c2ccccc2)c2ccccc2)cc1 (stereo unspecified) ?
Result: inactive

Request: Any idea what this test logged for "CO[C@@H]1COC(=O)[C@H](C)NC(=O)CC=C[C@@H](C)[C@H](NS(=O)(=O)c2ccc(C)cc2)COC(=O)CC=C[C@@H]1C" ?
Result: inactive
